Assay: GST conjugation activity with ethacrynic acid (HPLC)
Format: biochemical
Details: 0.4 mM electrophilic substrate, 4 mM glutathione, 0.1 M MOPS pH 7.0, corrected for uncatalyzed reaction
Protocol: The GST enzymes, expressed and purified as described in Example 5 were screened for their ability to metabolize a variety of substrates. […] For each enzyme, the conjugation reaction with each electrophilic substrate was performed by incubating 0.3 to 30 μg enzyme in 0.1 M MOPS (pH 7.0) containing 0.4 mM of the electrophilic substrate. […] Quantitation of metabolites were based on an assumption that the extinction coefficient of the conjugate was identical to that of the electrophilic substrate. […]
Readout Label: Activity of soybean GST enzyme, Ethacrynic Acid
A bare number is not enough; add the unit after it.

Measured Activity of soybean GST enzyme, Ethacrynic Acid of ssl.pk0002.f7: soybean type III GST encoded by cDNA insert in clone ss1.pk0002.f7 (protein) MADGVVLLDTWASMFGMRVRIALAEKGVEYEYKEENLRNKSPLLLQMNPIHKKIPVLIHNGKPICESAIIVQYIDEVWNDKAPILPSDPYERAQARFWVDYIDKKVYDTWRKMWLSKGEEHEAGKKEFISIFKQLEETLSDKAYYGSDTFGFLDIGLIPFYSWFYTFETYGNFKMEEECPKLVAWAKRCMQREAVSKSLS : 68 nmol/min/mg

Entry source: patent US6168954A
